Ref: PubChem BioAssay (NCI)

Each record here notes measured growth inhibition.
assayProtocol: NCI Yeast Anticancer Drug Screen. Data for the cln2 rad14 strain (AID 165);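 note: 0% = growth equal to vehicle treated cultures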
runConditions: S. cerevisiae cln2 rad14 strain, at 50.0 µM (retest, dose inferred, filed as 5.0), hits give high values
Compounds without any hit were thinned out: in the full panel of roughly 79,000, 15% have a hit.
reportedMetric: growth inhibition (%)

molecule | observedMeasurement
Clc1c(Cl)c(Cl)c2n[nH]nc2c1Cl | 57
CCOC(=O)C1=C(C)NC(C)=C(C(=O)OCC)C1c1ccc(C)cc1 | 29
O=c1[nH]cc(/C=N\Nc2ccccc2)c(=O)[nH]1 | 29
Clc1cc(Cc2ccc(N=C/C=C/c3ccccc3)c(Cl)c2)ccc1N=C/C=C\c1ccccc1 | 74
N#CC(=C1C=CC(=NO)C=C1)c1ccccc1 | 99
Cc1cccc(/C=N\NC(=S)N2CCCCC2)n1 | 100
Cc1ccc2occ/c(=N\Nc3ccccc3)c2c1 | -23
CC1OC(OC2CCCc3c(O)c4c(c(O)c32)C(=O)c2ccccc2C4=O)CC(N)C1O (configuration not stated) | 98
COc1cccc(C(c2cc3c(cc2O)OCO3)N2CCOCC2)c1OC (configuration not stated) | 3
Cc1ccc(Nc2n[nH]c(=S)s2)cc1 | 94
O=C(CCc1ccccc1)ON1C(=S)C(c2ccccc2)(c2ccccc2)N=C1Sc1ccccc1 | 35
c1ccc2c(c1)Cn1c-2nc2ccccc21 | 87
